target-or-test-system: T1, HLA-DR15 (HLA-DRB1*15:01) (human)
T1 construct: mature; purified from homozygous EBV-transformed lymphoblastoid cells with antibody L243
measurement-protocol: competition ELISA vs biotin-A3 152-166
No end group written: not given here.
Use relative affinity to assign classes; range list: low = under 30, middle = from 30 up to 100, high = 100 and over

Illustrative cases are given below, each with its answer.
# binder, category-label
records = [
    ("KHMTVKNKYATSKHA-NH2 [CCNB1 396-410]", "high"),
    ("SDVILAVNDVDAEDG-NH2 [CCNB1 147-161]", "low"),
    ("GEWTPTLQHYLSYTE-NH2 [CCNB1 359-373]", "low"),
    ("LDYDMVHFPPSQIAA-NH2 [CCNB1 332-346]", "middle"),
]

[in] Tag the class for LALKILDNGEWTPTL-NH2 [CCNB1 351-365]
[out] middle

[in] Moving on to MELTMLDYDMVHFPP-NH2 [CCNB1 327-341]
[out] low

[in] Moving on to TALGDIGNKVSEQLQ-NH2 [CCNB1 43-57]
[out] high

[in] Moving on to PEIGDFAFVTDNTYT-NH2 [CCNB1 264-278]
[out] high

[in] Moving on to HFPPSQIAAGAFCLA-NH2 [CCNB1 338-352]
[out] high

[in] Moving on to GAFCLALKILDNGEW-NH2 [CCNB1 347-361]
[out] low

[in] Moving on to FAFVTDNTYTKHQIR-NH2 [CCNB1 269-283]
[out] low

[in] Moving on to KDIYAYLRQLEEEQA-NH2 [CCNB1 172-186]
[out] low

[in] Moving on to SKYEEMYPPEIGDFA-NH2 [CCNB1 256-270]
[out] high

[in] Moving on to QAFSDVILAVNDVDA-NH2 [CCNB1 144-158]
[out] middle

[in] Moving on to RALNFGLGRPLPLHF-NH2 [CCNB1 291-305]
[out] middle

[in] Moving on to NCVPKKMLQLVGVTA-NH2 [CCNB1 237-251]
[out] middle

[in] Moving on to NTYTKHQIRQMEMKI-NH2 [CCNB1 275-289]
[out] middle

[in] Moving on to H-KNVVMVNQGLTKHMT-NH2 (not fully specified) [CCNB1 385-399]
[out] low
